biological target: SOS1/KRAS G12C protein binding (Homo sapiens, UniProt Q07889); construct: His-SOS1 (aa 564-1049) protein; 20200707 (KRAS G12C); experiment: Inhibition of SOS1/KRAS G12C protein binding (665 nm/615 nm ratio); conditions: 15 nM KRAS G12C (aa 1-169), 2.5 nM His-SOS1 (aa 564-1049); nonlinear regression
Sequence (Q07889 564-1049, species assumed, stated change not applied): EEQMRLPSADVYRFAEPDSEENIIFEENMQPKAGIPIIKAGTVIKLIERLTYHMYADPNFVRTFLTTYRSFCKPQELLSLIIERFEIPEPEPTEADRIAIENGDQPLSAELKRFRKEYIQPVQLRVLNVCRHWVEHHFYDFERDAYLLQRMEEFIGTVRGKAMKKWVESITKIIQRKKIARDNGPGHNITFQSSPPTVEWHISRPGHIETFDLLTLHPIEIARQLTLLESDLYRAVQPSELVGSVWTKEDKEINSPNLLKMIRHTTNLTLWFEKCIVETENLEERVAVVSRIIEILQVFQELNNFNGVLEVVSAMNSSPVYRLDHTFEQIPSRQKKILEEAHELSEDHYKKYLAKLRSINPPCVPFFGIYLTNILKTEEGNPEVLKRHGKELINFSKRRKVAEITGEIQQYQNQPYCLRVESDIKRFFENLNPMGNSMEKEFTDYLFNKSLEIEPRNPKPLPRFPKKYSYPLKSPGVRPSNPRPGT
# pIC50 values compiled below
The read-out pIC50 is expressed as -log10 of concentration in moles per litre.

Reference set, count: 2
{"columns": ["Compound", "Test system", "pIC50"],
 "data": [
  ["Cc1nc(N[C@H](C)c2cccc(C(F)F)c2F)c2cn(C3(C(F)F)CC3)c(=O)c(OC3CC3)c2n1", "SOS1/KRAS G12C protein binding (Homo sapiens, UniProt Q07889)", 7.65],
  ["COc1c(=O)n(C2(C(F)F)CC2)cc2c(N[C@H](C)c3ccc(-c4ccccc4CN(C)C)s3)nc(C)nc12", "SOS1/KRAS G12C protein binding (Homo sapiens, UniProt Q07889)", 8.86]
]}

**Query** Quick check: pIC50 of COc1c(=O)n(C2CC(F)(F)C2)cc2c(N[C@H](C)c3cccc(C(F)F)c3F)nc(C)nc12 ?
**Result** 7.44

**Query** Quick check: pIC50 of CCOc1c(=O)n(C2(C(F)F)CC2)cc2c(N[C@H](C)c3cccc(C(F)F)c3C)nc(C)nc12 ?
**Result** 8.38

**Query** Quick check: pIC50 of COc1c(=O)n(C2CCN(C(=O)C3CC3)CC2)cc2c(N[C@H](C)c3cccc(C(F)F)c3F)nc(C)nc12 ?
**Result** 7.55

**Query** Quick check: pIC50 of CCS(=O)(=O)c1c(=O)n(C2(C(F)F)CC2)cc2c(N[C@H](C)c3cccc(C(F)F)c3F)nc(C)nc12 ?
**Result** 7.44

**Query** Quick check: pIC50 of CSc1c(=O)n(C2(C(F)F)CC2)cc2c(N[C@H](C)c3cccc(C(F)F)c3F)nc(C)nc12 ?
**Result** 7.90

**Query** Quick check: pIC50 of COc1c(=O)n(C2(C(F)F)CC2)cc2c(N[C@H](C)c3cccc4c(F)coc34)nc(C)nc12 [SZ-022330B] ?
**Result** 8.00

**Query** Quick check: pIC50 of CCOc1c(=O)n(C2(C(F)(F)F)CC2)cc2c(N[C@H](C)c3cccc(C(C)(F)F)c3F)nc(C)nc12 ?
**Result** 8.02

**Query** Quick check: pIC50 of COc1c(=O)n(C2(C)CCOC2)cc2c(N[C@H](C)c3cccc(C(F)F)c3F)nc(C)nc12 (stereo partly drawn) ?
**Result** 8.01

**Query** Quick check: pIC50 of COc1c(=O)n(C2(C(F)F)CC2)cc2c(N[C@H](C)c3cccc(C(F)(F)F)c3)nc(C)nc12 ?
**Result** 7.66

**Query** Quick check: pIC50 of Cc1nc(N[C@H](C)c2cccc(C(F)(F)F)c2C)c2cn(C3(C)CC3)c(=O)c(S(C)(=O)=O)c2n1 ?
**Result** 7.66

**Query** Quick check: pIC50 of Cc1nc(N[C@H](C)c2cccc(C(F)F)c2F)c2cn(C3(C(F)F)CC3)c(=O)c(OCC(F)(F)F)c2n1 ?
**Result** 7.75

**Query** Quick check: pIC50 of COc1c(=O)n(C2(C(F)F)CC2)cc2c(N[C@H](C)c3cccc(C(F)(F)CO)c3F)nc(C)nc12 ?
**Result** 8.58

**Query** Quick check: pIC50 of Cc1nc(N[C@H](C)c2cccc(C(F)F)c2F)c2cn(C3(C(F)F)CC3)c(=O)c(OCC3CC3)c2n1 ?
**Result** 7.76

**Query** Quick check: pIC50 of Cc1nc(N[C@H](C)c2cccc(C(F)F)c2F)c2cn(C3(C(F)F)CC3)c(=O)c(O[C@@H]3CCOC3)c2n1 ?
**Result** 7.76

**Query** Quick check: pIC50 of Cc1nc(N[C@H](C)c2cccc(C(F)F)c2F)c2cn(C3(C(F)F)CC3)c(=O)c(OCCO)c2n1 ?
**Result** 7.80

**Query** Quick check: pIC50 of CCOc1c(=O)n(C2(C(F)(F)F)CC2)cc2c(N[C@H](C)c3cccc(C(F)(F)F)c3C)nc(C)nc12 ?
**Result** 7.82
